The reported measurements were obtained from patent US20100254975A1.

test-target: a4(V824A)b7 (human) (UniProt P13612)
Sequence (P13612 34-1032 V824A, chain 1 of 2): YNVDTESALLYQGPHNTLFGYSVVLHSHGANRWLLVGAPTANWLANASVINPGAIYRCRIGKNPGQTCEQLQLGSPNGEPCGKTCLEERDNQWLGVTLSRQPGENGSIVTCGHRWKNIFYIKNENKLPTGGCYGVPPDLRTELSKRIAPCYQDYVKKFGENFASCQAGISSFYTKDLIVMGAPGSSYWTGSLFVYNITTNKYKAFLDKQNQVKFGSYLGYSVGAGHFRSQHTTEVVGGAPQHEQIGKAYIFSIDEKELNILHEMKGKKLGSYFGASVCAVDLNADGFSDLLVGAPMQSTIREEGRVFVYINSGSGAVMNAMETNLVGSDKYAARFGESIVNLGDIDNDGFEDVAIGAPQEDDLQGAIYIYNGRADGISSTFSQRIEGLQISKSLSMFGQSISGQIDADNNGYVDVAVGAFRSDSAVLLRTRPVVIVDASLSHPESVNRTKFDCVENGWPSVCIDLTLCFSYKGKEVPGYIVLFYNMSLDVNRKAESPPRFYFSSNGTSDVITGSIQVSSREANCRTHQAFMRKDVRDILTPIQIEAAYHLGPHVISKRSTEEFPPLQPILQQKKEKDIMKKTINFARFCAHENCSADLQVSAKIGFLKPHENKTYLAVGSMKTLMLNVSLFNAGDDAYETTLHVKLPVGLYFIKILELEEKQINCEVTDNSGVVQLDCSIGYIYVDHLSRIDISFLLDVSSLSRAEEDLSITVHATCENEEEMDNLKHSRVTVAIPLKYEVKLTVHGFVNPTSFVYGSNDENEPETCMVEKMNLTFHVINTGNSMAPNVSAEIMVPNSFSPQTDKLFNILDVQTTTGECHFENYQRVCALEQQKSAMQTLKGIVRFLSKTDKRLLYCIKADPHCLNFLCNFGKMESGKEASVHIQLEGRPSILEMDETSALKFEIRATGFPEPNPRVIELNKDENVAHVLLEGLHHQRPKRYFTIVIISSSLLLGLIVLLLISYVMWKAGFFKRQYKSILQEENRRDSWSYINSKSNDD
Sequence (P26010 20-798, chain 2 of 2, further chain): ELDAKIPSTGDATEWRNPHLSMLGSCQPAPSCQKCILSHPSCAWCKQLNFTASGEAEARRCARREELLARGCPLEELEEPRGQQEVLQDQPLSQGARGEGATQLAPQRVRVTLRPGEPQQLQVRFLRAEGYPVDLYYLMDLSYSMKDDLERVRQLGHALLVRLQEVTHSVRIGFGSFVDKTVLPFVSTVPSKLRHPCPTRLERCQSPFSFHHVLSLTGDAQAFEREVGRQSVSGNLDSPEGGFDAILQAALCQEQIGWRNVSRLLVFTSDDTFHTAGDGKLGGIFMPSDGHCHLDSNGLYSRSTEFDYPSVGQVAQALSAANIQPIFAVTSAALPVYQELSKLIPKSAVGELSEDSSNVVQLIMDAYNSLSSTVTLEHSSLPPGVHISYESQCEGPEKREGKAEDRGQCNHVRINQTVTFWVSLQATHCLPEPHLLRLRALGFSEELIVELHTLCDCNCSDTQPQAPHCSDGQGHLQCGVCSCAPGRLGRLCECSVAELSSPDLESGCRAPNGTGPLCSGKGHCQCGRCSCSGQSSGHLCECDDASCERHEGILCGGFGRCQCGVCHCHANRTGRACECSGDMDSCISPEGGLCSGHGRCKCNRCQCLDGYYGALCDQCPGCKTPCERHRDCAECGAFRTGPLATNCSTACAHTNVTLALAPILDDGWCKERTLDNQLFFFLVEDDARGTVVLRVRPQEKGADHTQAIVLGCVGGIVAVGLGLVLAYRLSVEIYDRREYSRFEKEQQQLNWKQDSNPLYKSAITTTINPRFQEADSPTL
protocol-description: FACS on transfected 293 cells, 1 microG/ml, PE anti-human IgG
observation-type: fluorescence staining intensity (geometric mean)
Lab note: record the figure alone, no unit after it.

[
  {
    "binder": "25C9 (antibody, V domains shown, Fully human monoclonal from XenoMouse (human IgG2 or IgG4); kappa light chain; also called 25C9k; 25C9K) VH: QVQLVESGGGLVKPGGSLRLSCAASGFTFNDYYMSWIRQAPGKGLEWVSYISSSGSAIHYADSVKGRFTISRDNAKNSLYLQMNSLRAEDTAVYYCAREYSSGWAYFDYWGQGTLVTVSS VL: DIQMTQSPSSVSASVGDRVTITCRASQDISSWLAWYQRKPGKAPKVLIYSASSLQSGVPSRFSGSGSGTDFTLTISSLQPEDFATYYCQQADSFPWTFGQGTKVEIK",
    "value-reported": 77
  }
]

State its fluorescence staining intensity (geometric mean) for this binder: 22B2 (antibody, V domains shown, Fully human monoclonal from XenoMouse (human IgG2 or IgG4); kappa light chain; also called 22B2K; 22B2H) VH: EVQLVQSGAEVKEPGESLKISCKGSGYIFTSYWIAWVRQLPGKGLEWMGIIDPNDSDTRYSPSFQGQVTISADKSIHTAYLQWSSLKASDTAMYYCATHRLWLGTLPGGFYIWGQGTMVTVSS VL: DVQMTQSPSSLSASVGDRVTITCQASQDITDYLNWYQQKPGKAPKLLIYDTSNLEAGVPSRFSGSGSGTDFTFTISSLQPEDIATYYCQQYDILPYSFGQGTDLEIK
85

Give fluorescence staining intensity (geometric mean) for the following binder: 26G2 (antibody, V domains shown, Fully human monoclonal from XenoMouse (human IgG2 or IgG4); kappa light chain; also called 26G2k; 26G2K) VH: QVQLVESGGGLVKPGGSLRLSCAASGFTFSDYYMSWIRQAPGKGLEWVSYISSIGSAIHYADSVKGRFTISRDNAKNSLYLQMNSLRAEDTAVYYCAREYSSGWAYFDYWGQGTLVTVSS VL: DIQMTQSPSSVSASVGDRVTITCRASQDISSWLAWYQQKPGTAPKVLIYSASSLQNGVPSRFSGRGSGTDFALTISSLQPEDFATYYCQQADSFPWTFGRGTKVEIK
86

Specify reported fluorescence staining intensity (geometric mean) for the binder shown: 19G6 (antibody, V domains shown, Fully human monoclonal from XenoMouse (human IgG2 or IgG4); kappa light chain; also called 19G6K; 19G6H) VH: QVQLVESGGDLVKPGGSLRLSCAASGFTFSDYYMSWIRQAPGKGLEWISYISSSGSTMYYADSVKGRFTISRVNAKNSLYLQMNSLRAEDTAVYYCARDRSSGLVSFDYWGQGTLVTVSS VL: DIQMTQSPSSLSASVGDRVTISCQASQDINTYLNWYQQKPGKVPKLLIYDASNLETGVPSRFSGSGSGTDFTFTISGLQPEDIATYYCQQFDNLPITFGQGTRLEIK
67
